meta.source: the nanobody polyreactivity screen of Harvey et al. (2022)

# ASSAY EXPLANATION: yeast display, Sf9 membrane polyspecificity reagent, FACS + sequencing; frameworks hold sequencing errors
METRIC: polyreactivity (PSR sort gate)

These recorded examples may help you get a feel for the data.
stdin: Item `QVQLVESGGGLVQAGGSLRLSCAASGRTFFRYAMGWYRQAPGKERELVAAISRSGGGTYYADSVKGRFTISRDNAKNTVYLQMNSLKPEDTAVYYCNRDDYSRNHVYEFDYWGQGTQVTVSS` has what recorded polyreactivity (PSR sort gate)?
stdout: low polyreactivity

stdin: Item `QVQLVESGGGLVQAGGSLRLSCAASGRTFRPNAMGWYRQAPGKERELVAAISRRGGSTNYADSVKGRFTISRDNAKNTVYLQMNSLKPEDTAVYYCNSRGRRGYDYWGQGTQVTVSS` has what recorded polyreactivity (PSR sort gate)?
stdout: high polyreactivity

stdin: Item `QVQLVESGGGVVQAGGSLRLSCAASGSIFNGYAMGWYRQAPGNEWELVAAISGNGGRTYYADSVKGRFTFSRDYAKNTVYLQMNSLKPEETADYYCNKVSGYYVDYWGQGSQVTVSS` has what recorded polyreactivity (PSR sort gate)?
stdout: high polyreactivity

stdin: Item `QVQLVESGGGLVQAGGSLRLSCAASGSTFDTYAMGWYRPAPGKERELVAGMTRRGGRTYYADSVKGRFTISRDTAKNTVYLQKNSLKPEDTADYYCNAVPQRPVGKLDHWGQGTQVTVSS` has what recorded polyreactivity (PSR sort gate)?
stdout: high polyreactivity

stdin: Item `QVQLVESGGGLVQAGGSLRLSCAASGIIFRSNAMGWYRQAPVKETELVAAITGRGTRTYFADSVKGRFTISRDYAKYRVYFQMNSLKPEDTAVYYCNKGQTRGMGYWGQGTQVTVSS` has what recorded polyreactivity (PSR sort gate)?
stdout: high polyreactivity

stdin: Item `QVQLVESGGGLVQAGGSLRLSCAASGLISWLYVMGWYRQAPGKERELVAAIRYSGGRTYYADSVKGRFTISRDNAKNTVYLQMNSLKPEDTAVYYCAAEEQVVKAHGDYWGQGTQVTVSS` has what recorded polyreactivity (PSR sort gate)?
stdout: low polyreactivity

stdin: Item `QVKRVESGGGLVHAGGSLRLSCPASGRTVAKYAMGGYRQEPGKARELVAAITSSGGITYYAESVQGRYTISRDNAKNIVYLQMNSLKREDTAFYYCAVKTFQVGTFRRYYYWGQGTQVTVSS` has what recorded polyreactivity (PSR sort gate)?
stdout: high polyreactivity

stdin: Item `QVQLVESGGGLVQAGGSLRLSCAASGITFYTYVMGWYRQAHGKERELVAAITNADSTYYADSVKGRFTISRDNAKNTVYLQMNSLKPEDTAVYYCAADWYWGGIVDSWGQGTQVTVSS` has what recorded polyreactivity (PSR sort gate)?
stdout: high polyreactivity

State recorded polyreactivity (PSR sort gate) for all listed sequences.
1. QVQLVESGGGLVQAGGSLRLICAASGRTFGPYAMGWYRQAPGKEREFVAAITWRGGRTNYADSVKGRFTISRDNAKNTVYLQMNSLKPEDTAVYYCNAVISPHQWIRGGDSWGQGTQVTVSS
2. QVQLVESGGGLVQAGGSLRLSSAASTYLRLLMLWDGIDRRLGQIGSWLPLLTLVVNSTYYADSVKGRFTISRDNAKNTVYFQMNSLKPEDTAVYYCNVDPYGTYARTHLEYWGQGTQVTVSS
3. QVQLGESGGGLVQAGGSLRLSCAASGRIFQIYGMGWYRQAPGKERELVASISSGDSTNFADSVKGRFTISRDNAKNTVYLQMNSLIPEDTAVYYCAARSRRAYNYWGQGTQVTVSS
4. QVQLVESGGGLVQAGGSLRLSSAASGSIQFRNAMRWYRHAPGKERELVAAITVSGGSTYYADSVKGRFTISRDYAKNRVYLQMNSLKPEDNAVYLCAAVYLLRYSQFDYWGQGTQVTESS

stdout:
1. low polyreactivity
2. low polyreactivity
3. high polyreactivity
4. low polyreactivity
